# System: SK-MEL-28 melanoma
# TEST_METHOD_NOTES: NCI-60 one-dose screen, 48 h (100 = growth as untreated, 0 = no growth, -100 = all killed)
# EXPERIMENTAL_SETUP: 10 µM unless noted
Compounds without any hit were thinned out: in the full panel of roughly 83,000, 20% have a hit.
MEASUREMENT_KIND: growth (%)
Write the value in % as a bare number.

Task: What does the data say about its growth? Entry: "CCCCCCCCNc1ncnc2c1ncn2Cc1nnc2c3ccccc3c(Cl)nn12"
Output: 62.9

Task: Fill blank: measured growth of the molecule "C=CCNc1ccc2c3c(cccc13)C(=O)N(CC=C)C2=O" is ____.
Output: 103

Task: Bench note: what growth did CC1=C(C(=O)OCc2ccccc2)C(c2ccc3c(c2)OCO3)n2c(nc3ccccc32)N1 (stereo not given) show?
Output: 61.8

Task: Param item = CCCC1Cc2cc(-n3nc(C)c4c3CC(C)(C)CC4=O)cc(NC3CCC(O)CC3)c2C(=O)N1 (stereo not given) ; retrieve measured growth.
Output: 31.5

Task: Fill in: growth of CSc1nc(N)c2c(n1)NC(c1ccccc1)C1CCc3ccccc3C1=N2 (stereo not given) is ___
Output: 81.5

Task: Which growth reading was recorded for the molecule "COc1nc2ccccc2cc1/C=C1/C=C(c2ccccc2)NC1=O" ?
Output: 58.9

Task: Entry under review: "Cn1ccnc1C(=O)/C=C/c1ccc(C(=O)Nc2c(F)c(F)c(F)c(F)c2F)cc1" . Reported growth?
Output: 82.5

Task: // growth lookup, key: "C(CCCSC1=NCCN1)CCSC1=NCCN1"
Output: 113

Task: Value lookup for growth; key = "CN(C)C(=O)OCc1ccc2c(Cl)cc(Cl)c(O)c2n1"
Output: 42.2

Task: Given the entry "C=CN(C(=O)N1CCN(c2cc3c(cc2F)c(=O)c(C(=O)O)cn3C2CC2)CC1)c1nc(-c2ccc(C)cc2)cs1" , report its measured growth.
Output: 42.1

Task: Can you look up the measured growth of "CC(C)(C)n1cc(-c2ccnc(NCCNS(=O)(=O)c3cccc4ccccc34)c2)c(-c2cccc(O)c2)n1" for me?
Output: 83.4

Task: Fill in: growth of CC1(C)CC(=O)C2=C(C1)OC(C(=O)c1ccccc1)C2c1cccc(Oc2ccccc2)c1 (stereo not given) is ___
Output: 74.4

Task: Returns the measured growth for the input molecule. Input: CC1=C(C(=O)c2ccccc2)C(c2ccc3c(c2)OCO3)NC(=S)N1 (stereo not given)
Output: 70.9

Task: Would you kindly share the measured growth for "COc1ccc(NC(=O)CSc2oc(-c3ccccc3)nc2S(=O)(=O)c2ccc(Cl)cc2)c(OC)c1" ?
Output: 67.1

Task: State the recorded growth for this entry: "Cn1cc(-c2nc(-c3c[nH]c4ccncc34)cs2)c2cc(F)ccc21"
Output: -95.1

Task: May I ask what growth has been recorded for CCCn1cnc2c(c1=N)C(c1ccc(Cl)cc1)c1sc3c(F)cccc3c1O2 (stereo not given) ?
Output: 80.1

Task: Entry CCOC(=O)C1=C(c2ccccc2)N=C2N(c3ccccc3)N=C(C(C)=O)N2C1c1ccc(Br)cc1 (stereo not given) has what growth?
Output: 99.9

Task: Sample "CN1CCN(Cc2ccc(NC(=O)c3cncc(C#Cc4c(N)ncc5cc(F)ccc45)c3)cc2C(F)(F)F)CC1" — what was its growth?
Output: -41.9

Task: Entry under review: "COc1ccc(-c2nc3cc(C(=O)NC4CCCCC4)ccc3n2C2CCCCC2)cc1" . Reported growth?
Output: 100

Task: May I ask what growth has been recorded for "C=C1C(=O)O[C@H]2[C@H]1CC/C(COC(=O)NCc1ccc(Cn3c(=O)sn(CCCC)c3=O)cc1)=C\CC[C@@]1(C)O[C@@H]21" ?
Output: 55.5
